Origin of values: patent US20230134571A1

# system: HIV Env, isolate SC05_8C11_2344 (HIV)
# assay info: cell-based or functional assay
observation type: IC80 (µg/ml) with constrains (µg/mL)
Dear colleague, please return just the value in µg/mL, with no unit written.

Please list IC80 (µg/ml) with constrains recorded for the binder PGDM1400 (antibody, V domains shown) VH: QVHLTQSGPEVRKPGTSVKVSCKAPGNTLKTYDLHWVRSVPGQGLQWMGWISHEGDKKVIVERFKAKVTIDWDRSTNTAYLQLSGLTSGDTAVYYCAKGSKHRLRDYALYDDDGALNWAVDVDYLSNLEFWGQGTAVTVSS VL: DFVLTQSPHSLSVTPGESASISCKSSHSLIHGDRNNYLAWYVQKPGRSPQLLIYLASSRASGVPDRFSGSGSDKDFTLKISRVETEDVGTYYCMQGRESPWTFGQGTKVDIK 17.8

Kindly indicate its recorded IC80 (µg/ml) with constrains. Item: ePGDM13 (antibody, V domains shown) VH: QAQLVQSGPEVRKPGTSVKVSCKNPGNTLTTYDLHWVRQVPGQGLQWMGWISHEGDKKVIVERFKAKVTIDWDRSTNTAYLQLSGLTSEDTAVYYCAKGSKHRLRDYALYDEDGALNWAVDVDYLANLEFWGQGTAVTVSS VL: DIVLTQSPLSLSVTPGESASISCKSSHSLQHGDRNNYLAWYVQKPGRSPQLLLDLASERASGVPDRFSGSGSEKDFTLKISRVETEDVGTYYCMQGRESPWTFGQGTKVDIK 9.44

Please give measured IC80 (µg/ml) with constrains of the following entry: ePGDM9 (antibody, V domains shown) VH: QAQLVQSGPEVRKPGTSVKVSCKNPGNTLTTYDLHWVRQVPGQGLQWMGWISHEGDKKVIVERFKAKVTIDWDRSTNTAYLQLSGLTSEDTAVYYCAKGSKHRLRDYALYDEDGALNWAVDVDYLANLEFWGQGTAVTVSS VL: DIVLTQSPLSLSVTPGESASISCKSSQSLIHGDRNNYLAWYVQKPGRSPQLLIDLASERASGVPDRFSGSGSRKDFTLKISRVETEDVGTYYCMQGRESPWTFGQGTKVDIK 4.25

Fill in reported IC80 (µg/ml) with constrains for this entry: ePGDM5 (antibody, V domains shown) VH: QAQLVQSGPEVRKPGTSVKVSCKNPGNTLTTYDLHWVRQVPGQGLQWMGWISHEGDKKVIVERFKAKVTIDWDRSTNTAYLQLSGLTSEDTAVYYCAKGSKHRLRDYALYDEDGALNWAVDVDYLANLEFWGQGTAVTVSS VL: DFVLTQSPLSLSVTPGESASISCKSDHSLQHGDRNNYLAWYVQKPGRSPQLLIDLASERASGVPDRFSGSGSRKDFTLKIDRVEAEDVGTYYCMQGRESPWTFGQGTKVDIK 14.5
